All values here come from PubChem BioAssay (NCI).

- methodDescription: NCI Yeast Anticancer Drug Screen. Data for the mec2-1 strain (AID 157)
- details: S. cerevisiae mec2-1 strain, at 5.0 µM (retest, dose inferred, filed as 0.5), stronger effect = higher value
Compounds without any hit were thinned out: in the full panel of roughly 79,000, 15% have a hit.
reportedProperty: growth inhibition (%)
Numbers only here, please. The scale is %.

Some compounds with known growth inhibition results, for comparison:
C/C=C\C=N\NC(N)=S	-3
CC[n+]1c(/C=C/c2ccc(N(C)C)cc2)ccc2ccccc21	23
OCCCC(Sc1ccccc1)c1ccccc1 (stereo not drawn)	-18
CCC[CH2][Sn]([CH2]CCC)([O]C(=O)c1cc(F)cc(F)c1)[O][Sn]([CH2]CCC)([CH2]CCC)[O]C(=O)c1cc(F)cc(F)c1	57
CCC[CH2][Sn]([CH2]CCC)([O]C(=O)c1cc(OC)c(OC)c(OC)c1)[O]C(=O)c1cc(OC)c(OC)c(OC)c1	96

The measured growth inhibition associated with `CCOC(=O)c1c(O)c(C)c(=O)n2c1[nH]c1cc(C)c(C)cc12` reads 10

For reference, reported growth inhibition for `CS(=O)(=O)OCCN(CCOS(C)(=O)=O)c1ccc(C=Nc2ccc(-c3csc(-c4ccc(Cl)cc4)n3)cc2)cc1` stands at 15

Item: CC(NNC(=S)N1CCCC1)c1cccnn1 (stereo not drawn) | growth inhibition: 91

The reported value for `Cc1ccc(/C=N/Nc2ccc([N+](=O)[O-])cc2[N+](=O)[O-])cc1` in terms of growth inhibition is -1

GET /value?item= `COc1ccc(Nc2nc3ccccc3s2)cc1` &field=growth inhibition returns -3

Form field growth inhibition, entry `O=C1CNC(=O)c2cc(Cl)ccc2N1` : 25

---

- methodDescription: NCI Yeast Anticancer Drug Screen. Data for the mlh1 rad18 strain (AID 175)
- details: S. cerevisiae mlh1 rad18 strain growth inhibition; at 50.0 µM
Compounds without any hit were thinned out: in the full panel of roughly 79,000, 15% have a hit. Active and inactive are the calls of the source. No stated cut-off is given here; in the data, active means growth inhibition above about 70%; inactive means the rest.
Pick one and only one: TRUE (active), FALSE (inactive)

Example results:
C[C@H]1CC[C@@H]2[C@@H](C)[C@H]3[C@H](C[C@H]4[C@@H]5CC=C6C[C@@H](O)CC[C@]6(C)[C@H]5CC[C@]34C)N2C1	TRUE
Cc1ccc(N2CC3CC4(C)C=CC3(C2)O4)cc1 (stereo not drawn)	FALSE
COc1cc(-c2ccc(-[n+]3nc(Cc4ccc5c(c4)OCO5)nn3-c3ccccc3)c(OC)c2)ccc1-[n+]1nc(Cc2ccc3c(c2)OCO3)nn1-c1ccccc1	TRUE
CC(=O)OC1C(O)C(C)OC(OC(=O)C2CCC3C(C2)OC2(CC(OC(=O)/C=C/c4ccccc4)C(C)CO2)C32CO2)C1OC1OC(C)C(O)C(O)C1O (stereo not drawn)	TRUE
CO/N=C/c1ccc([N+](=O)[O-])s1	TRUE

input: Can you look up the reported call for O=C1c2ccccc2-c2ccc(N3C(=O)C4CCCCC4C3=O)cc21 (stereo not drawn) for me?
output: FALSE

input: What outcome does the record of this test show for `CC(C)(C)C1=CC(=CC=C2C=CN(CCO)C=C2)C=C(C(C)(C)C)C1=O` ?
output: TRUE

input: What is the recorded call for this molecule in the test? N/C(=N\OC1(c2ccccc2)OC(=O)C(=O)/C1=C(/O)c1ccccc1)c1ccccc1 (stereo not drawn)
output: TRUE

---

- methodDescription: NCI Yeast Anticancer Drug Screen. Data for the bub3 strain (AID 167)
- details: S. cerevisiae bub3 mutant strain, at 50.0 µM (retest, dose inferred, filed as 5.0)
About 79,000 compounds went through this panel and 15% of them were active in at least one assay; those are over-represented in the sample as a whole. Activity calls are given as the source filed them. Cut-off read from the data, not from the text of the source: active = growth inhibition above about 70%; inactive = the rest.
Choose one outcome from this list and give only that: 1 (active), -1 (inactive)

Here are 3 molecules together with their reported answers.
COc1ccccc1C(=O)N(Cc1ccccc1)c1ccc(Cl)c(C(=O)OC(C)C)c1	-1
COC(=O)C1=C(C)NC(C)=C(C(=O)OC)C1c1ccc(/[N+]([O-])=C/c2ccccc2)cc1	1
COc1cccc2c1C(=O)c1c(O)c3c(c(O)c1C2=O)C[C@@](O)(/C(C)=N/NC(N)=S)C[C@@H]3OC1CC(N)C(O)C(C)O1 (some centres undefined)	-1

input: GET /call?item= `CN(CCCN(CCO)CCO)C1CC(C)(C)N(O)C(C)(C)C1` returns the recorded outcome of this test.
output: -1

input: Kindly provide the recorded test outcome for the following molecule: `Cc1cccc(-c2csc(N)n2)c1`
output: -1

input: For `c1ccc2c(CCc3ccncc3)cccc2c1` , which call appears in the assay record?
output: 1

input: # fetch the recorded call for `Clc1cc2c(c3ncccc13)OCN(CCc1ccccc1)C2` here
output: -1

input: Could you please tell me the result logged for `S=c1nc(/C=C/c2ccc(Cl)c(Cl)c2)[nH][nH]1` in this assay?
output: -1

---

- methodDescription: NCI Yeast Anticancer Drug Screen. Data for the cln2 rad14 strain (AID 165);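 also: 0% = growth equal to vehicle treated cultures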
- details: S. cerevisiae cln2 rad14 strain, at 50.0 µM (retest, dose inferred, filed as 5.0), stronger effect = higher value
This is part of a sample that, as a whole, favours compounds with a hit. Of some 79,000 tested, about 15% had one in any assay.
Each record's class is read off its growth inhibition using these ranges: bottom end = under 20%, midrange = from 20% up to 70%, top end = 70% and over

input: State the class of the compound shown: `C/C(=N\NC(=S)N(C)C)c1cccc(C)n1`
output: top end

input: Entry `Cc1cc(NC(=S)SCc2ccc3c(c2)OCO3)ccc1Br` belongs to which category?
output: top end

input: Hi there! Could you help me figure out the category for COC(=O)C1C(c2ccccc2)=N[C@@H](c2ccccc2)[C@H]1C(=O)OC (stereo partly specified) please?
output: bottom end

input: Which growth inhibition category applies to N#CC(C(=O)CCCC(=O)Nc1ccc(Cl)cc1)c1ccccc1Cl (stereo unspecified) here?
output: bottom end

---

- methodDescription: NCI Yeast Anticancer Drug Screen. Data for the mlh1 rad18 strain (AID 175)
- details: S. cerevisiae mlh1 rad18 strain growth inhibition; at 50.0 µM (retest, dose inferred, filed as 5.0); stronger effect = higher value
- Experimental: Growth inhibition of yeast strains with defined genetic alterations is measured as a screen for potential anti-cancer activity. Selected strains with alterations in DNA damage repair or cell cycle control were exposed to compounds and growth inhibition was measured relative to vehicle treated controls. The strain used in this assay is mlh1 rad18
About 79,000 compounds went through this panel and 15% of them were active in at least one assay; those are over-represented in the sample as a whole.
Please enter true where growth inhibition is greater than or equal to 20%, and false where it is lower.

// known answers, use as guide
CC1=C(C(=O)NCc2ccccc2)C(c2ccccc2[N+](=O)[O-])C(C(=O)NCc2ccccc2)=C(C)N1	false
c1ccc2c(c1)Sc1nccc3ccnc-2c13	true
CC(C)(C)N=C=NC(c1ccccc1)(c1ccccc1)c1ccccc1	false
CC(Cl)C(=O)Nc1cc2ccccc2oc1=O (stereo unspecified)	false

input: For this compound, is measured growth inhibition 20% or higher? `O=c1[nH]c2c([N+](=O)[O-])cc(Cl)cc2nc1/C=C(\O)c1ccc(Cl)cc1`
output: true

input: Form field: growth inhibition at least 20%? Entry: CC1N(O)C(c2ccccc2)C(c2ccccc2)=[N+]1[O-] (stereo unspecified)
output: true

---

Reported growth inhibition values are given for each entry in this list.
- methodDescription: NCI Yeast Anticancer Drug Screen. Data for the mec2-1 strain (AID 157)
- details: S. cerevisiae mec2-1 strain, at 50.0 µM (retest, dose inferred, filed as 5.0), stronger effect = higher value
- Protocol: Growth inhibition of yeast strains with defined genetic alterations is measured as a screen for potential anti-cancer activity. Selected strains with alterations in DNA damage repair or cell cycle control were exposed to compounds and growth inhibition was measured relative to vehicle treated controls. The strain used in this assay is mec2-1
About 79,000 compounds went through this panel and 15% of them were active in at least one assay; those are over-represented in the sample as a whole.
// note: answer is a bare numeric in %

Cc1nc(Cl)c(C#N)c(C)c1[N+](=O)[O-]	81
COc1cc(OC)c(OC)cc1/C=C\c1nccc2ccccc12	12
CC1OC(Oc2c(-c3ccc(O)c(O)c3O)oc3cc(O)ccc3c2=O)C(O)C(O)C1O (stereo unspecified)	-5
CCCCCCCCC(=O)NCCCNCCCNC(=O)CCCCCCCC	-18
COC(=O)C12CCC(C)(C)CC1C1=CCC3C4(C)CC(O)C(O)C(C)(C(=O)OC)C4CCC3(C)C1(CO)CC2 (stereo unspecified)	99

Value of measured growth inhibition for the entry `COc1cc(/C=C/C(=O)c2ccc(O)c(OC)c2)ccc1O` : 29

growth inhibition reading for `Cc1cccc(/C=N/Nc2ccccn2)n1` : 37

According to the records, this molecule `COC(=O)CCCCCOS(=O)(=O)c1ccc(C)cc1` displays growth inhibition of -5

The molecule listed as `O/N=C(/Cc1nc2cc(Cl)c(Cl)cc2nc1C/C(=N/O)c1ccncc1)c1ccncc1` shows growth inhibition equal to 77

Memo: `CCOC(=O)C1=C(N)N(S(=O)(=O)c2ccc(C)cc2)CCC(C(=O)OC)=C1` , reported growth inhibition: 0

growth inhibition reading for `Cc1ccccc1N=NC(C(=O)c1ccccc1)C(=O)c1ccccc1` : 96

// `O=[N+]([O-])c1ccc(O)c(C=Nc2ccccc2)c1` : growth inhibition value = -21

Entry `CC(C)(C)c1cc(C(O)(C(F)(F)F)C(F)(F)F)c(Cl)c(C(O)(C(F)(F)F)C(F)(F)F)c1` , growth inhibition reported as 98

growth inhibition measured on `CSC(SC)C(SC)SC` = 99

// growth inhibition value for `O=[N+]([O-])c1ccc(Sc2ccsc2)c([N+](=O)[O-])c1` : 87

Reported growth inhibition of `CCOC(=O)C(=Cc1ccc(C(=O)OC)cc1)C(=O)OCC` : 86

growth inhibition for `c1ccc2c(CCc3ccncc3)cccc2c1` is 60

Consider `CCCCCCCCCCCCOC(=O)C[N+]1(C)CCCCC1` . Its measured growth inhibition is 99

Looking up CCCCN(CCCC)CC(O)c1cc(-c2ccc(Cl)cc2)nc2c(C)cccc12 (stereo unspecified) , I see its growth inhibition listed as 95

Summary for this molecule, C=CCN1CCC(OC(=O)C(O)(C#CC)C2CCCC2)CC1 (stereo unspecified) : growth inhibition is 62

Value of growth inhibition reported for the molecule `COc1cc(C(=O)[O][Sn]([c]2ccccc2)([c]2ccccc2)[c]2ccccc2)cc(OC)c1OC` is 100

growth inhibition measured on `CC(C)=CCc1c2c(c(O)c3c(=O)c(-c4ccc(O)cc4O)coc13)C=CC(C)(C)O2` = 97
